Catalogue of compounds with associated inhibition
- assayedTarget: Histone-lysine N-methyltransferase SETD7 (Homo sapiens) (UniProt Q8WTS6)
- Sequence (Q8WTS6 whole entry): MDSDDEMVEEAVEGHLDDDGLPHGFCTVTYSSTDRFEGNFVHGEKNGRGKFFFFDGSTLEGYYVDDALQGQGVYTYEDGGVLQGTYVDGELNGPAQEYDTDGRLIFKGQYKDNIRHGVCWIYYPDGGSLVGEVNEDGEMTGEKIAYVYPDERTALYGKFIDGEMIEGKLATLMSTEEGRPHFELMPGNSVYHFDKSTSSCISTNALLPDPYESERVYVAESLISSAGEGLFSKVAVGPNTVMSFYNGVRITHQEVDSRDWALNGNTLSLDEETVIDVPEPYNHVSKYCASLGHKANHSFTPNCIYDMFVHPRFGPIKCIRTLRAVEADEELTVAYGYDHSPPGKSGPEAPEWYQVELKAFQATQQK
- protocolSummary: Inhibition of human SET7 overexpressed in Escherichia coli BL21 (DE3) cells at 12.5 uM preincubated for 15 mins followed by addition of SAM as substrate and biotinylated Histone H3 (1-50) peptide measured after 30 mins by AlphaLISA assay relative to control

compound	unitName	inhibition
CCN1CCCC1CNC(=O)c1cc(S(=O)(=O)CC)c(N)cc1OC (stereo not given)	%	14
CC(C)=CCC1=C(O)C(=O)c2ccccc2C1=O	%	3
Cc1cc([N+](=O)[O-])ccc1NS(=O)(=O)c1cc(Cl)ccc1Cl	%	17
C=CC(C)(C)c1cc(/C=C/C(=O)c2ccc(O)cc2)c(OC)cc1O	%	17
O=C(Nc1c(Cl)cncc1Cl)c1ccc(OC(F)F)c(OCC2CC2)c1	%	27

* * *

- assayedTarget: Histone-lysine N-methyltransferase SETD7 (Homo sapiens)
- protocolSummary: Inhibition of human SET7 overexpressed in Escherichia coli BL21 (DE3) cells at 25 uM preincubated for 15 mins followed by addition of SAM as substrate and biotinylated Histone H3 (1-50) peptide measured after 30 mins by AlphaLISA assay relative to control

compound	inhibition, %
CC(C)=CCC1=C(O)C(=O)c2ccccc2C1=O	4
CC(C)C[C@H](NC(=O)[C@H](Cc1ccccc1)NC(=O)c1cnccn1)B(O)O	19
CCN1CCCC1CNC(=O)c1cc(S(=O)(=O)CC)c(N)cc1OC (configuration not stated)	14
O=c1c(O)c(-c2ccc(O)cc2O)oc2cc(O)cc(O)c12 [MORIN]	62
O=C(N/N=C/c1ccc([N+](=O)[O-])o1)c1ccc(O)cc1	18
N[C@@H](CC(=O)N1CCn2c(nnc2C(F)(F)F)C1)Cc1cc(F)c(F)cc1F	6
Cc1cc([N+](=O)[O-])ccc1NS(=O)(=O)c1cc(Cl)ccc1Cl	26
CC(C)=CC[C@@H](O)C1=CC(=O)c2c(O)ccc(O)c2C1=O [SHIKONIN]	72
CCn1cc(C(=O)O)c(=O)c2cc(F)c(N3CCNC(C)C3)c(F)c21 (configuration not stated)	23
COc1c(O)cc(O)c2c(=O)cc(-c3ccccc3)oc12	10
Cc1cnc(NC(=O)C2=C(O)c3ccccc3S(=O)(=O)N2C)s1	29
C=CC(C)(C)c1cc(/C=C/C(=O)c2ccc(O)cc2)c(OC)cc1O	28
O=C(Nc1c(Cl)cncc1Cl)c1ccc(OC(F)F)c(OCC2CC2)c1	19
O=c1c(-c2ccc(O)cc2)coc2cc(O)ccc12	6
Cc1oncc1C(=O)Nc1ccc(C(F)(F)F)cc1	4
COC(=O)[C@H](Cc1ccccc1)NC(=O)[C@@H](N)CC(=O)O	32
COc1cc(O)c(CC=C(C)C)c(O)c1C(=O)/C=C/c1ccc(O)cc1	11

* * *

- Tested on: MV4-11
- protocolSummary: Antiproliferation activity against human MV4-11 cells assessed as reduction in cell viability measured by Cell-titer-Glo assay
- Assay type: functional, cell-based
measurementLabel: IC50 (µM)

molecule	testResult
O=c1cc(-c2ccc(O)cc2)oc2cc(O)c(O)c(O)c12 [SCUTELLAREIN]	27.1

* * *

- assayedTarget: Histone-lysine N-methyltransferase 2A (Homo sapiens, UniProt Q03164)
- Sequence (Q03164 1-2718 limits assumed): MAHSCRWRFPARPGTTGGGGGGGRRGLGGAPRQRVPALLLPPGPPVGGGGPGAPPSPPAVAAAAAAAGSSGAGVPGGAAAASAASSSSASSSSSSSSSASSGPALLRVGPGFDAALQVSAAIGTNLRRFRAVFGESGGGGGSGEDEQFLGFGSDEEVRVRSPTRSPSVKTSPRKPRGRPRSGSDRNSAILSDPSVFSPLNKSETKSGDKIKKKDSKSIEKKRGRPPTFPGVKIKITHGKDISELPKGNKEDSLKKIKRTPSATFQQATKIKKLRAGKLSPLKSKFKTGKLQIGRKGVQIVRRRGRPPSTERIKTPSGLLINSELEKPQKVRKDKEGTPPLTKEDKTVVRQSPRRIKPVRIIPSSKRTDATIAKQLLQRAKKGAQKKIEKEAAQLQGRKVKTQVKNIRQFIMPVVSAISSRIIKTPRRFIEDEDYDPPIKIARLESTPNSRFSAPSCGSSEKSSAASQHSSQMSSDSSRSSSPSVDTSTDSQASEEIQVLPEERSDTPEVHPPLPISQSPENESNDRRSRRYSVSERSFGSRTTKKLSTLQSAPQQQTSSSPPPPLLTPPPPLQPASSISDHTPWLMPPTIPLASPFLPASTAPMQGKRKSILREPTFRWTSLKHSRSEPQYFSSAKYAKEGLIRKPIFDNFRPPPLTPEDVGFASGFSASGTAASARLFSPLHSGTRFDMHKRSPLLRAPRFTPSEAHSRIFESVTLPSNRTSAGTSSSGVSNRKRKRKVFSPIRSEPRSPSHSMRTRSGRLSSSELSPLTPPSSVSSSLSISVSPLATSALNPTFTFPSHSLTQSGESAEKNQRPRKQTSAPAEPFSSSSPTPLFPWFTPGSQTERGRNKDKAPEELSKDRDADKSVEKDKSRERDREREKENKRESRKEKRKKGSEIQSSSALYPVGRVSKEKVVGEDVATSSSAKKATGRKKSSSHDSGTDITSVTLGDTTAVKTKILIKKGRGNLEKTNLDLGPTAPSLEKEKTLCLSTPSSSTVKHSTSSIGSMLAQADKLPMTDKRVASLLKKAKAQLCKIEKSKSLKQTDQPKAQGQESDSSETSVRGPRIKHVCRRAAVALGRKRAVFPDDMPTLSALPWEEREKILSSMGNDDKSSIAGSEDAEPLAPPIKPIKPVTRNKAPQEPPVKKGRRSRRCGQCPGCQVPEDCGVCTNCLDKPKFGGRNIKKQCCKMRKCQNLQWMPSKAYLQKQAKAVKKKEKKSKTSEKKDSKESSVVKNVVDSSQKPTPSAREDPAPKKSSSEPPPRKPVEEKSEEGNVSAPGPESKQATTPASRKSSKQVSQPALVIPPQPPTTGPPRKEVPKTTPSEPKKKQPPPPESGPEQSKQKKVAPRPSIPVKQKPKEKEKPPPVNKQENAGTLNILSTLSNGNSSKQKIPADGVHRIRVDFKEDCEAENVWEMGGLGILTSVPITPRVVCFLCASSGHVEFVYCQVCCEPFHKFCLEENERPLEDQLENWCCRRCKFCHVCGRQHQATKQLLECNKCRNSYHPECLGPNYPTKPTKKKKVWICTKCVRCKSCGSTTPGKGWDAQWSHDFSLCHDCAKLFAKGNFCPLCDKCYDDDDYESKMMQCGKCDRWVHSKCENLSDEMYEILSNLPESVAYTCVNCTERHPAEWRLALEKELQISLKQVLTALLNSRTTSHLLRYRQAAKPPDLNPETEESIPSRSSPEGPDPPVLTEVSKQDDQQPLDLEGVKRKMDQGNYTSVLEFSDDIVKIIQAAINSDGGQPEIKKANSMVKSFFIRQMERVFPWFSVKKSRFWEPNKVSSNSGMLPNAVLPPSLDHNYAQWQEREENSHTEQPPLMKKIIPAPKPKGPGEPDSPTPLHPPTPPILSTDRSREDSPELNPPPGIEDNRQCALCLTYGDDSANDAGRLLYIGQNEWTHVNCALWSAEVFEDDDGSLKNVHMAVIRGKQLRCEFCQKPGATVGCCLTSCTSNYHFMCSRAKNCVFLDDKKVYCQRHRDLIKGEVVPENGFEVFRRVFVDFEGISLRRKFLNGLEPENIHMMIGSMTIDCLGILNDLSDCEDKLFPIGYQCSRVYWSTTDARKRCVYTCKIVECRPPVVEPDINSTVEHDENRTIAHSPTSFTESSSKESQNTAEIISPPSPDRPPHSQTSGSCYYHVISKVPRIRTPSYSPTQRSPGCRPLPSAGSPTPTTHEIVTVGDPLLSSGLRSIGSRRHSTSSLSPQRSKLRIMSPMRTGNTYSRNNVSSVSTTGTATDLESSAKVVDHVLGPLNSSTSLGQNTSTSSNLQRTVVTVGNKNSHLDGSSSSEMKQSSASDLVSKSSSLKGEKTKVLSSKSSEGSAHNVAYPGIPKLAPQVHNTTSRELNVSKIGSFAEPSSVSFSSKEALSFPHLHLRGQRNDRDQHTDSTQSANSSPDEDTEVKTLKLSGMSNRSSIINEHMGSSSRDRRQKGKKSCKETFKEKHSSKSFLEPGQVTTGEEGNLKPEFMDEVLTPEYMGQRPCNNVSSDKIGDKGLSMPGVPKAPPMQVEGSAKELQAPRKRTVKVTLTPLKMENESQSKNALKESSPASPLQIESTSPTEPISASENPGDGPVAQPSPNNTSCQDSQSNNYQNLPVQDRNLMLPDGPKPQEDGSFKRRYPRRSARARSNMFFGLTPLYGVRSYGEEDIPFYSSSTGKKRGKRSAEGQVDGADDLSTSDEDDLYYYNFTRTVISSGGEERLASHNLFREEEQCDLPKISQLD
- Sequence (Q03164 2719-3969 limits assumed): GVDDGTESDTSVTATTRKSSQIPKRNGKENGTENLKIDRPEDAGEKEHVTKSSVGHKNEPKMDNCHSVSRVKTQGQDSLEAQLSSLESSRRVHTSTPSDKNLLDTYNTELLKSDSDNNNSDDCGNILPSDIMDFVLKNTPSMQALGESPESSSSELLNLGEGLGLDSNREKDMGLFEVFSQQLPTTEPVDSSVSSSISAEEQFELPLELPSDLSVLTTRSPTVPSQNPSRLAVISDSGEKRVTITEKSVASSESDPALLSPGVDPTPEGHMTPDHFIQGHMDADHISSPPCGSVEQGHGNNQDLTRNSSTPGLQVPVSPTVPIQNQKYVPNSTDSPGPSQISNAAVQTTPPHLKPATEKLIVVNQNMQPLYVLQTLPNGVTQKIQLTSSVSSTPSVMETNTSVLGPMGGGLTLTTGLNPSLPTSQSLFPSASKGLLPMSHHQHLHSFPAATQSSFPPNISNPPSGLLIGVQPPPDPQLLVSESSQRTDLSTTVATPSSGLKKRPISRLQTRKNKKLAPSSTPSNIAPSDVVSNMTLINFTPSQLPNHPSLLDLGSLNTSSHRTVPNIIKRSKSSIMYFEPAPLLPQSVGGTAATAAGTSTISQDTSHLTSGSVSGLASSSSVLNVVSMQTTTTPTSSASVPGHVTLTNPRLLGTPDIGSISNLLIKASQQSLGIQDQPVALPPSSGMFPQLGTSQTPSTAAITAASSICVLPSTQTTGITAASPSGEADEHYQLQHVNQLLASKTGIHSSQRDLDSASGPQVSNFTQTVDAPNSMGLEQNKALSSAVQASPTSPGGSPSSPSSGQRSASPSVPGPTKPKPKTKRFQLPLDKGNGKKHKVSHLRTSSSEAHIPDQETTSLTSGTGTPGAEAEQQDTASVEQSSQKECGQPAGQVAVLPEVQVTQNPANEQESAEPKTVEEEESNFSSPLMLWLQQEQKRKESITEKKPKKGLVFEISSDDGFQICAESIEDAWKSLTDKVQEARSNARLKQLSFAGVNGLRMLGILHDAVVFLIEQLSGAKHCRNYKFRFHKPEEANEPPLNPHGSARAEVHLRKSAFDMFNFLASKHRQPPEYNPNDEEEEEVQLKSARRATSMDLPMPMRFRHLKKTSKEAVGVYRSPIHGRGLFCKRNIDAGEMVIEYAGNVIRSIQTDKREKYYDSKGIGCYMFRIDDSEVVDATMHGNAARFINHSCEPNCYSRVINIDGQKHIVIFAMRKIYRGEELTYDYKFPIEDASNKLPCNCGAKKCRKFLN
pIC50: −log10 of the molar value.
measurementLabel: pIC50

molecule	testResult
O=c1cc(-c2ccc(O)cc2)oc2cc(O)c(O)c(O)c12	5.53

Value source: ChEMBL document CHEMBL4627299
